# credit: the supplement of paper PMC10201428

What relative integration efficiency (log2) was measured for each of the following?
Tested on: VchCAST RNA-guided transposition machinery (E. coli BL21(DE3) host, lacZ target)
METHOD_DESCRIPTION: relative integration efficiency (T-RL orientation) vs wild-type transposon end (log2 (normalized fold change)); transposon end mutated: left end; higher = more efficient transposition
Answers are plain numbers.

Worked cases, answers included:
MONOMER_SEQUENCE	TEST_RESULT
AATGTTGTTGATGCAACCATAAAGTGATATTTAATAATTATTTATAATCAGCAACTTAACCACAAAAACCAACGCGCGGTCGCGAGAACAAAAACCAACGCCCTGTCGCGGGCTGTGAATCGAGTATTTCAGCAAAACTACTGCAGTAAGAA	-6.97
AATGTTGTTGATGCAACCATATATTGATATCTCATAATTATTTATAATCAGCAACTTAACCACAAAACAACCATAAGTTGATATTTTACAAAAGTTGGTATTCAACTATAAAATGTGAATCGAGTATTTCAGCAAAACTACTGCAGTAAGAA	-3.58
AATGTTGTTGATGCAACCATAAAATGATAATTAATAATTATTTATAATCAGCAACTTAACCACAAAACACCCATAAATTGATATTGCACAAAAGTTGGTATTCAACTATAAAATGTGAATCGAGTATTTCAGCAAAACTACTGCAGTAAGAA	-3.1

With those in mind, consider the next sequence.
Name the recorded relative integration efficiency (log2) for `AATGTTGTTGATGCAACCATAAAGTGATATTTAATAATTATTTATAATCAGCAACTTAACCACAAAACAACCATATATTGATATCTCACAAACAACCATAAGTTGATATTTTTGTGAATCGAGTATTTCAGCAAAACTACTGCAGTAAGAAA` .
-1.69
